# target or system: Rap guanine nucleotide exchange factor 4 (Homo sapiens)
# test protocol: Confirmatory qHTS for agonist of cAMP-regulated guanine nucleotide exchange factor 4 (EPAC2) (AID 1645884);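 also: nucleotide exchange releases bodipy-GDP from Rap1 and this lowers its fluorescence; nearly all actives have a fitted effect of over 65% in size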
# measurement setup: EPAC2 GEF activity, Rap1B-BODIPY-GDP fluorescence; series mostly up to 154 µM
Records with an inconclusive call do not appear. The source made the active and inactive calls. Calls follow the shape of the dose curve; as a rule, active = well fitted activation curve with a large enough effect; inconclusive = small, poorly fitted or top-dose-only effect; inactive = no such curve, though single readings can be large or run the other way.
readout label: activation

CCOC(=O)C(Cc1ccc(NC(=O)/C(=C\c2ccccc2)NC(=O)c2ccccc2)cc1)N1C(=O)c2ccccc2C1=O (stereo not drawn) : inactive
Nc1ccc2ccccc2c1C(=O)c1ccccc1 : inactive
O=C(C[n+]1cccc2cc(Cl)ccc21)c1ccc(Br)cc1 : inactive
COc1cc(/C=N/NC(=O)c2ccccn2)ccc1OC(=O)c1ccc(Br)cc1 : inactive

-- ask Reported activation for CC1CCCN(CC(=O)Nc2cc(Cl)ccc2Oc2ccccc2)C1 (stereo not drawn) : what is it?
-- reply inactive

-- ask Reported activation for CN1N=C(C(C)(C)C)CC1=O : what is it?
-- reply inactive

-- ask Reported activation for Cc1ccc(C(=O)Nc2ccc(N3CCOCC3)c3nonc23)cc1[N+](=O)[O-] : what is it?
-- reply inactive

-- ask Reported activation for CN(C)C(CNS(=O)(=O)c1ccc(Cl)cc1)c1cccnc1 (stereo not drawn) : what is it?
-- reply inactive

-- ask Reported activation for CC1(C(=O)NS(=O)(=O)c2ccc(C#N)cc2)CCN1C(=O)C1(c2ccccc2)CCCC1 (stereo not drawn) : what is it?
-- reply inactive
